Reported max response values follow for various compounds
- Assay: qHTS Assay for Lipid Storage Modulators (AID 1519)
- Run conditions: Drosophila S3 cells, BODIPY lipid droplet/cell ratio, laser cytometry; measured here: cell count channel max response; cells loaded with oleic acid
Results filed as inconclusive are left out.
Give just the number in %; leave the unit off.

Worked cases, max response given:
Q: Retrieve max response measured for Clc1ccccc1-c1nc(NC2CCNCC2)c2ccccc2n1 and print it.
Ans: 15.1

Q: Retrieve max response measured for CC(=O)N(CC(O)CN(C(C)=O)c1c(I)c(C(=O)NC[C@@H](O)CO)c(I)c(C(=O)NC[C@@H](O)CO)c1I)c1c(I)c(C(=O)NC[C@@H](O)CO)c(I)c(C(=O)NC[C@@H](O)CO)c1I and print it.
Ans: -17.3

Q: Retrieve max response measured for COc1ccc(C(=O)N2CCC[C@@]3(CCN(c4ncccn4)C3)C2)cc1 and print it.
Ans: 3.46

Q: Retrieve max response measured for O=c1cnc2cnc(N3CCNCC3)nc2n1C1CC1 and print it.
Ans: 9.12

We next turn to a different compound, shown below.
Q: Retrieve max response measured for O=C(Nc1cccc(F)c1)N1CC2(CCN(C(=O)c3ccco3)CC2)C1 and print it.
Ans: 1.85

* * *

- Assay: AP1 Signaling Pathway (AID 357);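 note: ME-180 reporter cells stimulated with EGF at its EC50 level; % is set by controls: 0 for no effect and ±100 for the full control effect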
- Run conditions: ME-180 (cervical carcinoma) AP-1-bla reporter, EGF-induced, beta-lactamase ratio, 5 h; at 7.69 µM (top of the series) unless noted
Results filed as inconclusive are left out.
Reported activity change, negative = inhibition values follow for various molecules
Give just the number in %; leave the unit off.

Worked cases, activity change, negative = inhibition given:
Q: Retrieve activity change, negative = inhibition measured for N#Cc1ccc(CN2CCC3(CC2)CCN(C(=O)c2cc(C(F)(F)F)cc(C(F)(F)F)c2)CC3)cc1 and print it.
Ans: 7.04

Q: Retrieve activity change, negative = inhibition measured for COCCn1c(=O)c(-c2ccc(Cl)cc2)nc2cnc(N(C)C)nc21 and print it.
Ans: -3.17

Q: Retrieve activity change, negative = inhibition measured for COCC(=O)N1CCC2(CCCN(c3ccccc3)C2)CC1 and print it.
Ans: 4.54

Q: Retrieve activity change, negative = inhibition measured for CS(=O)(=O)N1CCC2(CCCN(Cc3ccc(C#N)cc3)C2)CC1 and print it.
Ans: -16.1

Q: Retrieve activity change, negative = inhibition measured for N#Cc1cccc(NC(=O)N2CC[C@@]3(CCCN(C(=O)c4cnccn4)C3)C2)c1 and print it.
Ans: -6.32

Q: Retrieve activity change, negative = inhibition measured for COc1cccc(-c2cc(NCc3cccnc3)ncn2)c1 and print it.
Ans: 12.8

We next turn to a different molecule, shown below.
Q: Retrieve activity change, negative = inhibition measured for COc1ccc(Oc2ncc3nc(-c4cn(C)c5ccccc45)c(=O)n(C)c3n2)cc1 and print it.
Ans: -24.2

* * *

- Test system: Cytochrome P450 2C19 (Homo sapiens)
- Assay: qHTS Assay for Inhibitors and Substrates of Cytochrome P450 2C19 (AID 899); note: nearly all actives have a fitted effect of over 60% in size
- Run conditions: recombinant CYP2C19, luciferin-H EGE luminescence; series mostly up to 57.1 µM
Records with an inconclusive call do not appear. Activity calls are given as the source filed them. Calls come from the whole dose curve; as a rule, active = well fitted inhibition curve with a large enough effect; inconclusive = small, poorly fitted or top-dose-only effect; inactive = no such curve, though single readings can be large or run the other way.
Please reply with one of these outcomes: true (1) for active, false (0) for inactive

Observe how each entry below is paired with its result.
Q: Record request — test call for COc1ccc2[nH]cc(CCNc3ncncc3-c3cccc(NS(C)(=O)=O)c3)c2c1
Ans: true (1)

Q: Record request — test call for COc1ccccc1CCn1c(=O)c(-c2cccc(Cl)c2)nc2cncnc21
Ans: true (1)

Q: Record request — test call for COc1cccc(-c2nccc(NCc3ccc(OC)cc3OC)n2)c1
Ans: true (1)

Q: Record request — test call for CN1CCN(c2ncc3nc(-c4cccc(C#N)c4)c(=O)n(C[C@H]4CCCO4)c3n2)CC1
Ans: false (0)

Q: Record request — test call for COc1cccc(-c2ccc3ncnc(NCCc4c[nH]c5ccc(OC)cc45)c3c2)c1
Ans: true (1)

Q: Record request — test call for CO/N=C(\C(=O)N[C@@H]1C(=O)N2C(C(=O)O)=C(COC(C)=O)CS[C@@H]12)c1csc(N)n1
Ans: false (0)

Further cases:
Q: Record request — test call for COc1ccccc1-c1ccc2ncnc(NCc3ccccc3)c2c1
Ans: true (1)

Q: Record request — test call for COc1ccc2[nH]cc(CCNc3ccnc(-c4ccccc4C)n3)c2c1
Ans: true (1)

Q: Record request — test call for COc1ccccc1CNc1nc(-c2ccc3c(c2)OCO3)nc2ccccc12
Ans: true (1)

Q: Record request — test call for CN1CCN(c2ncc3ncc(=O)n(CCc4ccccc4)c3n2)CC1
Ans: true (1)

* * *

- Test system: Cytochrome P450 2D6 (Homo sapiens) (UniProt P10635)
- Sequence (P10635 whole entry, looked up): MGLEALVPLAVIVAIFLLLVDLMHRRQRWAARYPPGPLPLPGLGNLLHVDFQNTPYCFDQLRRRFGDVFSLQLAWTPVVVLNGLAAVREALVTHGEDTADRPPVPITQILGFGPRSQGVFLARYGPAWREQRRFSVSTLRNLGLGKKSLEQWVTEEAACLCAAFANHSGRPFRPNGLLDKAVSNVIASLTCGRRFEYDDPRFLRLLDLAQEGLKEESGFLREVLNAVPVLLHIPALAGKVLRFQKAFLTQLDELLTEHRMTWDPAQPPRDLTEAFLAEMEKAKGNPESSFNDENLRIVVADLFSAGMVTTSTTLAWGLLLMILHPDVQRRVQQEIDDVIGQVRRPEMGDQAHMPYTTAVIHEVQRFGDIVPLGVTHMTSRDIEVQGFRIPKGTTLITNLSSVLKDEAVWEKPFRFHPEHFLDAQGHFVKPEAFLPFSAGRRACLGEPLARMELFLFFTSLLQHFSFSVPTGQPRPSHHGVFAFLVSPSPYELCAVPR
- Assay: qHTS Assay for Inhibitors and Substrates of Cytochrome P450 2D6 (AID 891); note: nearly all actives have a fitted effect of over 60% in size
- Run conditions: recombinant CYP2D6, luciferin-ME EGE luminescence; series mostly up to 57.1 µM
Records with an inconclusive call do not appear. Active and inactive are the calls of the source. The call rests on the fitted dose curve; in most records, active means well fitted inhibition curve with a large enough effect; inconclusive means small, poorly fitted or top-dose-only effect; inactive means no such curve, though single readings can be large or run the other way.
Please reply with one of these outcomes: active, inactive

Q: Record request — test call for COc1cc2c3cc1Oc1c(OC)c(OC)cc4c1[C@@H](Cc1ccc(O)c(c1)Oc1ccc(cc1)C[C@@H]3N(C)CC2)N(C)CC4
Ans: inactive

Q: Record request — test call for c1ccc(Nc2ncnc3ccc(-c4ccc5c(c4)OCO5)cc23)cc1
Ans: active

Q: Record request — test call for CC(=O)NCCNc1nc(-c2ccccc2C)nc2ccccc12
Ans: active

Q: Record request — test call for c1cn(-c2ccnc(-c3ccc4c(c3)OCO4)n2)cn1
Ans: active

Further cases:
Q: Record request — test call for c1cncc(-c2nccc(NCc3cccs3)n2)c1
Ans: active

Q: Record request — test call for COc1ccc2[nH]cc(CCNc3ncnc4ccc(-c5ccc6c(c5)OCO6)cc34)c2c1
Ans: active

Q: Record request — test call for O=C(c1cccc(F)c1)N1CCC2(CCCN(Cc3ccncc3)C2)CC1
Ans: active

Q: Record request — test call for COc1ccccc1-c1nc(NCCNC(C)=O)c2ccccc2n1
Ans: active

Q: Record request — test call for CN1CCN(c2ncc3nc(-c4cccc(C#N)c4)c(=O)n(C[C@H]4CCCO4)c3n2)CC1
Ans: inactive

Q: Record request — test call for CN(C)Cc1ccccc1-c1nccc(N(C)Cc2ccco2)n1
Ans: active

Q: Record request — test call for COc1ccc2[nH]cc(CCNc3ncnc4ccc(-c5c(C)noc5C)cc34)c2c1
Ans: active

Q: Record request — test call for Cn1cccc1C(=O)N1CCC2(CCN(Cc3ccccc3)CC2)CC1
Ans: active

Q: Record request — test call for COc1cccc(-c2nccc(N(C)Cc3ccco3)n2)c1
Ans: active

Q: Record request — test call for CCCN1C[C@H](CSC)C[C@H]2c3cccc4[nH]cc(c34)C[C@@H]21
Ans: active

Q: Record request — test call for CS(=O)(=O)N1CCC2(CC1)CN(c1ccccc1)C2
Ans: active

Q: Record request — test call for COC(=O)N1CCC2(CC1)CCN(C(c1ccccc1)c1ccccc1)CC2
Ans: active

Q: Record request — test call for CCNc1ncc2nc(-c3cc(F)cc(F)c3)c(=O)n(CCOC)c2n1
Ans: active

* * *

- Tested on: W2
- Assay: qHTS profiling for inhibitors of Plasmodium falciparum proliferation (AID 504749); note: nearly all actives have a fitted effect of over 60% in size; note: potency is the fitted concentration of half-maximal effect
- Run conditions: P. falciparum in erythrocytes, SYBR Green DNA, 72 h; series mostly up to 12.8 µM
Records with an inconclusive call do not appear. The source made the active and inactive calls. Calls come from the whole dose curve; as a rule, active = well fitted inhibition curve with a large enough effect; inconclusive = small, poorly fitted or top-dose-only effect; inactive = flat fitted curve, though single readings scatter.
Measured parameter: Potency

Q: Retrieve Potency measured for COc1c(O)cc2c(c1O)[C@@H]1O[C@@H](CO)[C@@H](O)[C@@H](O)[C@@H]1OC2=O and print it.
Ans: inactive

Q: Retrieve Potency measured for CO[C@H]1C[C@@H](O[C@@H]2[C@H](C)[C@H](O[C@@H]3O[C@@H](C)C[C@@H](N(C)C)[C@@H]3O)[C@H](C)C[C@]3(CO3)C(=O)[C@H](C)[C@H](O)[C@H](C)[C@H](C)OC(=O)[C@@H]2C)O[C@@H](C)[C@H]1O and print it.
Ans: inactive

Q: Retrieve Potency measured for CC[C@]1(C)CC(=O)NC1=O and print it.
Ans: inactive

Q: Retrieve Potency measured for NC(=O)c1cc[n+](CC2=C(C(=O)O)N3C(=O)[C@@H](NC(=O)[C@H](c4ccccc4)S(=O)(=O)[O-])[C@@H]3SC2)cc1 and print it.
Ans: 510 nM (active)

We next turn to a different compound, shown below.
Q: Retrieve Potency measured for CCn1cc(C(=O)O)c(=O)c2cc(F)c(N3CCN[C@@H](C)C3)c(F)c21 and print it.
Ans: inactive

* * *

- Assay: Counterscreen for APE1 Inhibitors: Fluorescent Dye Displacement Validation Assay (AID 1707);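 note: plate controls were ThO with dsDNA and no compound for no effect and ThO without dsDNA for full effect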
- Run conditions: fluorescent dye displacement from DNA; series mostly up to 57.1 µM
Inconclusive results are not listed. Activity calls are given as the source filed them. Calls follow the shape of the dose curve; as a rule, active = well fitted inhibition curve with a large enough effect; inconclusive = small, poorly fitted or top-dose-only effect; inactive = no such curve, though single readings can be large or run the other way.
Measured parameter: outcome

Q: Retrieve outcome measured for Nc1ncnc2c1nc(Br)n2C1O[C@H]2COP(=O)(O)O[C@@H]2C1O (some centres undefined) and print it.
Ans: inactive

Q: Retrieve outcome measured for CN(C)CCCO[C@H]1C([C@H](O)CO)O[C@@H]2OC(C)(C)O[C@@H]21 (some centres undefined) and print it.
Ans: inactive

Q: Retrieve outcome measured for CCCC1O[C@@H]2C[C@H]3[C@@H]4CCC5=CC(=O)C=C[C@]5(C)C4[C@@H](O)C[C@]3(C)[C@]2(C(=O)CO)O1 (some centres undefined) and print it.
Ans: inactive

Q: Retrieve outcome measured for C[C@@H](Oc1ccc(Oc2cnc3ccc(Cl)cc3n2)cc1)C(=O)O and print it.
Ans: inactive

Reference source: PubChem BioAssay (NCATS)
